Measured IC50, listed per entry.
Target: MAb 1226S31.3
Test: inhibition enzyme immunoassay: inhibition of MAb binding to surface bound R-(-)-oxaprotiline-mucin conjugate
Design: species or system mouse
Details: MAb 1226S31.3; read-out: IC₅₀
METRIC NAME: IC50 (nM)

INSERT INTO measurements (compound, relation, measured_number) VALUES
  ('CN(C)CC(O)CC12CCC(c3ccccc31)c1ccc(Cl)cc12 (stereo not drawn)', '=', 50),
  ('CNC[C@H](O)CC12CCC(c3ccccc31)c1ccccc12', '=', 6.7),
  ('CNCC(O)CC12CCC(c3ccccc31)c1ccccc12 (racemic)', '=', 3.09),
  ('CNC[C@@H](CC12CCC(c3ccccc31)c1ccccc12)O[C@@H]1O[C@H](C(=O)O)[C@@H](O)[C@H](O)[C@H]1O', '=', 27.5),
  ('CNCC(CC12CCC(c3ccccc31)c1ccccc12)OC(C)=O (stereo not drawn)', '=', 3.58),
  ('CNCC(O)CC12CCC(c3ccccc31)c1ccc(C(F)(F)F)cc12 (stereo not drawn)', '>', 1000),
  ('c1ccc2c(c1)C1CCC2(CC2CNCCO2)c2ccccc21 (stereo not drawn)', '=', 2.1),
  ('CN(C)CC(O)CC12CCC(c3ccccc31)c1ccc(C(F)(F)F)cc12 (stereo not drawn)', '>', 1000),
  ('NCC(O)CC12CCC(c3ccccc31)c1ccccc12 (stereo not drawn)', '=', 2.38),
  ('CN1COC(CC23CCC(c4ccccc42)c2ccccc23)C1 (stereo not drawn)', '=', 4.45),
  ('CNC[C@H](CC12CCC(c3ccccc31)c1ccccc12)O[C@@H]1O[C@H](C(=O)O)[C@@H](O)[C@H](O)[C@H]1O', '=', 353);
